measured-on: T1, human factor XIIa (human, UniProt P00748 20-615, biotinylated with Biotin Ester (Zymed); sites not stated)
T1 chain: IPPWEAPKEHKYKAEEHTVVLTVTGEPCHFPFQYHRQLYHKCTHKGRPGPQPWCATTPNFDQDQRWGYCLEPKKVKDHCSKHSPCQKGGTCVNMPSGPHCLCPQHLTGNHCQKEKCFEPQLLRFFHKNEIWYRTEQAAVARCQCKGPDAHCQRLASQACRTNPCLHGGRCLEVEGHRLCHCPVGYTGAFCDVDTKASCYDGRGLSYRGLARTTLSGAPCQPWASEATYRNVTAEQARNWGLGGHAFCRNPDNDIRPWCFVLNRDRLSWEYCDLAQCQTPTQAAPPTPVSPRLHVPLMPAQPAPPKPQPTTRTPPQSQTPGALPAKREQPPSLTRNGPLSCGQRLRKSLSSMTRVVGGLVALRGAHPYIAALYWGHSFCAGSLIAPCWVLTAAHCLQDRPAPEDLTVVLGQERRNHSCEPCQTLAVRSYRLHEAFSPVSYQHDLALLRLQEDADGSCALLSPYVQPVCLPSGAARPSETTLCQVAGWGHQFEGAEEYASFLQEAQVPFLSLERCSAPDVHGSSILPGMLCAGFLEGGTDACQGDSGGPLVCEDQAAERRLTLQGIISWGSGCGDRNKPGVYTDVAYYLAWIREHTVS
assay-details: enzyme inhibition
pKi: −log10 of the molar value.
Give Satisfied when the value for pKi is at least 7. Give Not satisfied when it is less.

Look over these answered cases.
binder	class
BG003 (protein) EVVREVCSEQAETGPCRAMLHRWYFDVTEGKCAPFFYGGCGGNRNNFDTEEYCMAVCGSAI	Not satisfied
TW6202 (protein) EVVREVCSEQAETGPCRAGIWRWYFDVTEGKCAPFFYGGCGGNRNNFDTEEYCMAVCGSAI	Not satisfied
TW6175 (protein) EVVREVCSEQAETGPCRALIFRWYFDVTEGKCAPFFYGGCGGNRNNFDTEEYCMAVCGSAI	Satisfied

Prompt: Is pKi for DD113 (protein) EVVREVCSEQAETGPCRALIPRWYFDVTEGKCAPFFYGGCGGNRNNFDTEEYCMAVCGSAI at or above 7?
Completion: Not satisfied
